Tested on: HeLa
TEST_DETAILS: Cytotoxicity against human HeLa cells assessed as reduction in cell viability incubated for 72 hrs by MTT assay
Assay type: functional, cell-based
OBSERVED_PROPERTY: IC50 (nM)

compound="CC(=O)NNC(=O)[C@]12CC[C@@H](C)[C@H](C)C1C1=CCC3[C@@]4(C)Cc5cc6cc(Cl)ccc6cc5C(C)(C)C4CC[C@@]3(C)[C@]1(C)CC2 (stereo partly specified)" tested_on=HeLa recorded_value=80

---

Tested on: Enterovirus A71
TEST_DETAILS: Antiviral activity against human Enterovirus 71 BrCr infected in human RD cells assessed as reduction of virus induced cytopathic effect incubated for 48 hrs by MTS assay
Assay type: functional, organism-based
SETUP_CONDITIONS: Enterovirus A
pEC50: −log10 of the molar value.
OBSERVED_PROPERTY: pEC50

chemical_string=CCc1c(Cc2ccc(F)cc2)c(=O)oc2cc(OC(=O)N(C)C)ccc12 recorded_value=5.00
